# Assay method text: qHTS assay to identify small molecule agonists of the endoplasmic reticulum stress response signaling pathway - cell viability counter screen (AID 1159517); further: nearly all actives have a fitted effect of over 50% in size
# Conditions used: ESRE-bla HeLa viability, CellTiter-Glo luminescence, 5 h; series mostly up to 61 µM
# Text: U.S. Tox21 Program National Center for Advancing Translational Sciences [NCATS] NIH Chemical Genomics Center [NCGC] U.S. Environmental Protection Agency [EPA] National Institutes of Environmental Health Sciences [NIEHS] National Toxicology Program [NTP] U.S. Food and Drug Administration [FDA] Tox21 Assay Overview: Endoplasmic Reticulum (ER) plays an important role in cellular signaling, protein folding/maturation, stress response, lipid biosynthesis, calcium storage and release etc. […]
Results filed as inconclusive are left out. The source made the active and inactive calls. The call rests on the fitted dose curve.
Your answer must be one of the following: 1 (yes) (active), 0 (no) (inactive)

>>> discrete_label("Nc1ccc(Cl)cc1Cl")
"0 (no)"
>>> discrete_label("Cc1c(OCC(F)(F)F)ccnc1CS(=O)c1nc2ccccc2[nH]1 (stereo not given)")
"0 (no)"
>>> discrete_label("CCCCOCCOCCO")
"0 (no)"
>>> discrete_label("O=CCCCC=O")
"1 (yes)"
>>> discrete_label("c1ccncc1")
"0 (no)"
>>> discrete_label("CCC(C)(O)CCCC(C)C (stereo not given)")
"0 (no)"

-- ask # outcome recorded in this test, key = "COC(=O)CCC(=O)OC"
-- reply 0 (no)

-- ask Each compound tested received a call. Report the one for "C/C=C/C(=O)O" .
-- reply 0 (no)

-- ask // param item: "CN(C)CCN(Cc1cccs1)c1ccccn1" ; yields the recorded call
-- reply 0 (no)

-- ask I'd appreciate the recorded outcome for "c1ccc2c(c1)Oc1ccccc1S2" from this test.
-- reply 0 (no)

-- ask Assay result, entry "CC(=O)O[C@]1(C(C)=O)CC[C@H]2[C@@H]3C=C(Cl)C4=CC(=O)[C@@H]5C[C@@H]5[C@]4(C)[C@H]3CC[C@@]21C" — outcome?
-- reply 0 (no)

-- ask Assay outcome for "Nc1ccc(S(=O)(=O)Nc2cnc3ccccc3n2)cc1" : what was it?
-- reply 0 (no)

-- ask Would you mind telling me which call this test gave "OCCO" ?
-- reply 0 (no)

-- ask I would be grateful if you could indicate the recorded call for "O=C(c1ccccc1)c1ccccc1O" .
-- reply 0 (no)

-- ask Please state the recorded outcome for this compound: "COc1ccccc1/C=C/C=O"
-- reply 0 (no)

* * *

# Tested on: estrogen-related receptor alpha (ERRalpha) with PGC-1alpha coactivator, human
# Assay method text: qHTS assay to identify small molecule antagonists of the estrogen related receptor signaling pathway with the pleiotropic PPARgamma coactivator (PGC) (AID 1224821); further: nearly all actives have a fitted effect of over 50% in size; further: potency means the concentration at half of the fitted maximal effect
# Conditions used: ERR/PGC reporter cell line, luciferase, antagonist mode; series mostly up to 46.1 µM
Records with an inconclusive call do not appear. The source made the active and inactive calls. The call rests on the fitted dose curve.
Metric name: Potency

>>> measured_value("CCCCc1oc2ccccc2c1C(=O)c1cc(I)c(OCCN(CC)CC)c(I)c1")
"inactive"
>>> measured_value("CC(C(=O)O)c1cccc(C(=O)c2ccccc2)c1 (centres undefined)")
"inactive"
>>> measured_value("Nc1ncn([C@@H]2O[C@H](CO)[C@@H](O)[C@H]2O)c(=O)n1")
"3.1 µM (active)"
>>> measured_value("Cc1c(OCC(F)(F)F)ccnc1CS(=O)c1nc2ccccc2[nH]1 (centres undefined)")
"inactive"
